Numbers sourced from ChEMBL document CHEMBL4396883.

- ASSAYED TARGET: Cyclin-dependent kinase 5/CDK5 activator 1 (Homo sapiens, UniProt Q00535+Q15078)
- Sequence (Q00535 whole entry): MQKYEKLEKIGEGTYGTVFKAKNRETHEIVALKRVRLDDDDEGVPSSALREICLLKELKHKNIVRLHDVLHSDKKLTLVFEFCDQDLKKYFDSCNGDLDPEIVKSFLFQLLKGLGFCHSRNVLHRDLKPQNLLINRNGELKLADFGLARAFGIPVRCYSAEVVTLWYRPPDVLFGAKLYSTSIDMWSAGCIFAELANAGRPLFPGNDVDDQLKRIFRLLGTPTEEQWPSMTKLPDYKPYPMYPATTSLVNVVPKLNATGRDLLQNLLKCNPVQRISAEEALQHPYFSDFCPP
- Sequence (Q15078 99-307 partner limits assumed): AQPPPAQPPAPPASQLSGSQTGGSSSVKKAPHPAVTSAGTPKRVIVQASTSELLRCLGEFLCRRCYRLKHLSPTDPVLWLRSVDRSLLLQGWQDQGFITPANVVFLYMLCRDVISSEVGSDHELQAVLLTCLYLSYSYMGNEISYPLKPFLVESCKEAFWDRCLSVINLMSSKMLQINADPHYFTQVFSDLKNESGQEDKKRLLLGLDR
- ASSAY COMMENT: Inhibition of recombinant full length N-terminal GST tagged human CDK5/p25 expressed in baculovirus infected sf9 cells using histone H1 as substrate at 10 uM measured after 60 mins in presence of ATP by ADP-Glo kinase assay relative to control
Could you label it Yes if measured inhibition is 40% or higher, and No otherwise?

Previously resolved entries follow.
- CHEM SMILES: "CCc1cccc(Nc2ncc3c(n2)CCCC3)c1"
  ASSAYED TARGET: "Cyclin-dependent kinase 5/CDK5 activator 1 (Homo sapiens, UniProt Q00535+Q15078)"
  ANSWER LABEL: "Yes"
- CHEM SMILES: "COc1cc(Cl)ccc1Nc1ncc2c(n1)CCCC2"
  ASSAYED TARGET: "Cyclin-dependent kinase 5/CDK5 activator 1 (Homo sapiens, UniProt Q00535+Q15078)"
  ANSWER LABEL: "Yes"
- CHEM SMILES: "Cc1ccccc1Nc1ncc2c(n1)CCCC2"
  ASSAYED TARGET: "Cyclin-dependent kinase 5/CDK5 activator 1 (Homo sapiens, UniProt Q00535+Q15078)"
  ANSWER LABEL: "Yes"
- CHEM SMILES: "FC(F)(F)Oc1ccccc1Nc1ncc2c(n1)CCCC2"
  ASSAYED TARGET: "Cyclin-dependent kinase 5/CDK5 activator 1 (Homo sapiens, UniProt Q00535+Q15078)"
  ANSWER LABEL: "No"
- CHEM SMILES: "FC(F)(F)c1ccc(Nc2ncc3c(n2)CCCC3)cc1"
  ASSAYED TARGET: "Cyclin-dependent kinase 5/CDK5 activator 1 (Homo sapiens, UniProt Q00535+Q15078)"
  ANSWER LABEL: "No"
- CHEM SMILES: "COc1ccccc1Nc1ncc2c(n1)CCCC2"
  ASSAYED TARGET: "Cyclin-dependent kinase 5/CDK5 activator 1 (Homo sapiens, UniProt Q00535+Q15078)"
  ANSWER LABEL: "No"

We next turn to a different compound, shown below.
[in] Is the recorded value of inhibition equal to or greater than 40% for this compound? COc1cccc(Nc2ncc3c(n2)CCCC3)c1
[out] Yes

---

Entries and their GI50
- System: MV4-11
- ASSAY COMMENT: Antiproliferative activity against human MV4-11 cells assessed as growth inhibition measured after 72 hrs by resazurin assay
- Type: functional
- CONDITION SET: MV4-11, 72 h
Write the number in µM without appending the unit.

Example compounds with recorded GI50:
- CHEM SMILES: "CCc1cccc(Nc2ncc3c(n2)CCCC3)c1"
  ASSAYED TARGET: "MV4-11"
  GI50 / µM: 2.6
- CHEM SMILES: "NS(=O)(=O)c1cccc(Nc2ncc3c(n2)CCCC3)c1"
  ASSAYED TARGET: "MV4-11"
  GI50 / µM: 2.55
- CHEM SMILES: "O=[N+]([O-])c1cccc(Nc2ncc3c(n2)CCCC3)c1"
  ASSAYED TARGET: "MV4-11"
  GI50 / µM: 3.5
- CHEM SMILES: "COc1ccc(Nc2ncc3c(n2)CCC3)cc1"
  ASSAYED TARGET: "MV4-11"
  GI50 / µM: 0.84
- CHEM SMILES: "O=C(Nc1cccc(CN2CCCC2)c1)c1n[nH]c2ccccc12"
  ASSAYED TARGET: "MV4-11"
  GI50 / µM: 8.62
- CHEM SMILES: "c1ccc(Nc2ncc3c(n2)CCCC3)cc1"
  ASSAYED TARGET: "MV4-11"
  GI50 / µM: 9.83
- CHEM SMILES: "Cc1ccc(Nc2ncc3c(n2)CCCC3)cc1"
  ASSAYED TARGET: "MV4-11"
  GI50 / µM: 6
- CHEM SMILES: "COc1cccc(Nc2ncc3c(n2)CCCC3)c1"
  ASSAYED TARGET: "MV4-11"
  GI50 / µM: 2.28

In the following, a different compound is considered.
[in] Give the reported value of GI50 for this record: Cc1cccc(Nc2ncc3c(n2)CCCC3)c1
[out] 3.29

---

- ASSAYED TARGET: Cyclin-dependent kinase 1/cyclin B1 (Homo sapiens)
- Sequence (P06493 whole entry): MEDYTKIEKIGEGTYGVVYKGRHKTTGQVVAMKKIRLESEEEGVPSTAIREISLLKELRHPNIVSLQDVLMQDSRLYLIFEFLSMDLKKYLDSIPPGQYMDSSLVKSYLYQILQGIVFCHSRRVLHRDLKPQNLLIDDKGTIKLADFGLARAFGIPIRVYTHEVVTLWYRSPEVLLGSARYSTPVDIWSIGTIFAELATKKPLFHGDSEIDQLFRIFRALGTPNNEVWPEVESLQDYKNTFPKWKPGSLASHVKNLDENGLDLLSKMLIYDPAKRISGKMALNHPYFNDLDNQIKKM
- Sequence (P14635 whole entry, further chain): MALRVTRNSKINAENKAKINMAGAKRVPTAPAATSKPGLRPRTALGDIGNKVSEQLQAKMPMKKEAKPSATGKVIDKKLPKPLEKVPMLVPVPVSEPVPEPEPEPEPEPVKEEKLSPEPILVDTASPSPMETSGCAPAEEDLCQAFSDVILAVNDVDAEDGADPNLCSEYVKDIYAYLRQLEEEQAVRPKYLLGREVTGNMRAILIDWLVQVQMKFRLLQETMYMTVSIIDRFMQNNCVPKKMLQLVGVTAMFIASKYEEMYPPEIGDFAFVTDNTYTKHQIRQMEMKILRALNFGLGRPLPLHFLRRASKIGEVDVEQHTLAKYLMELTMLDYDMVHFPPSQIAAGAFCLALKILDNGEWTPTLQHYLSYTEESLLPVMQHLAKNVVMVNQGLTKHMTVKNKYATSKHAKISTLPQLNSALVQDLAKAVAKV
- ASSAY COMMENT: Inhibition of CDK1/CyclinB1 (unknown origin) using histone H1 (GGGPATPKKAKKL) as substrate incubated for 80 mins in presence of ATP by ADP-Glo kinase assay
Entries and their Ki

Example compounds with recorded Ki:
- CHEM SMILES: "COc1cccc(Nc2ncc3c(n2)CCCC3)c1"
  Ki: "> 5 µM"
- CHEM SMILES: "O=[N+]([O-])c1cccc(Nc2ncc3c(n2)CCCC3)c1"
  Ki: "> 5 µM"
- CHEM SMILES: "CCc1cccc(Nc2ncc3c(n2)CCCC3)c1"
  Ki: "> 5 µM"
- CHEM SMILES: "Cc1ccccc1Nc1ncc2c(n1)CCCC2"
  Ki: "> 5 µM"
- CHEM SMILES: "NS(=O)(=O)c1cccc(Nc2ncc3c(n2)CCCC3)c1"
  Ki: "2.61 µM"
- CHEM SMILES: "Cc1cccc(Nc2ncc3c(n2)CCCC3)c1"
  Ki: "2.36 µM"

In the following, a different compound is considered.
[in] Give the reported value of Ki for this record: Cc1ccc(Nc2ncc3c(n2)CCCC3)cc1
[out] > 5 µM

---

- ASSAYED TARGET: CDK2/Cyclin A2 (Homo sapiens, UniProt P24941)
- ASSAY COMMENT: Inhibition of recombinant full length N-terminal GST tagged human CDK2/CyclinA expressed in baculovirus infected sf9 cells using histone H1 as substrate measured after 30 mins in presence of ATP by ADP-Glo kinase assay
Entries and their Ki
Write the number in µM without appending the unit.

Example molecules with recorded Ki:
- CHEM SMILES: "O=[N+]([O-])c1cccc(Nc2ncc3c(n2)CCCC3)c1"
  RESULT NUMBER: 1.1
- CHEM SMILES: "Cc1cccc(Nc2ncc3c(n2)CCCC3)c1"
  RESULT NUMBER: 3.32
- CHEM SMILES: "COc1cccc(Nc2ncc3c(n2)CCCC3)c1"
  RESULT NUMBER: 1.11
- CHEM SMILES: "Cc1ccc(Nc2ncc3c(n2)CCCC3)cc1"
  RESULT NUMBER: 4.54
- CHEM SMILES: "Cc1ccccc1Nc1ncc2c(n1)CCCC2"
  RESULT NUMBER: 4.12

[in] Give the reported value of Ki for this record: NS(=O)(=O)c1cccc(Nc2ncc3c(n2)CCCC3)c1
[out] 0.27

---

- ASSAYED TARGET: Cyclin-dependent kinase 5/CDK5 activator 1 (Homo sapiens)
- ASSAY COMMENT: Inhibition of recombinant full length N-terminal GST tagged human CDK5/p25 expressed in baculovirus infected sf9 cells using histone H1 as substrate measured after 60 mins in presence of ATP by ADP-Glo kinase assay
// returns no unless Ki is strictly below 1000 nM, in which case yes

Previously resolved entries follow.
- CHEM SMILES: "COc1ccc(Nc2ncc3c(n2)CCC3)cc1"
  ANSWER LABEL: "no"
- CHEM SMILES: "CCc1cccc(Nc2ncc3c(n2)CCCC3)c1"
  ANSWER LABEL: "no"

[in] Hello, is Ki of the following compound strictly smaller than 1000 nM? c1ccc(Nc2ncc3c(n2)CCCC3)cc1
[out] yes

[in] Hello, is Ki of the following compound strictly smaller than 1000 nM? O=[N+]([O-])c1cccc(Nc2ncc3c(n2)CCCC3)c1
[out] no

[in] Hello, is Ki of the following compound strictly smaller than 1000 nM? O=C(Nc1cccc(CN2CCCC2)c1)c1n[nH]c2ccccc12
[out] no

[in] Hello, is Ki of the following compound strictly smaller than 1000 nM? Cc1ccc(Nc2ncc3c(n2)CCCC3)cc1
[out] no

[in] Hello, is Ki of the following compound strictly smaller than 1000 nM? Cc1cccc(Nc2ncc3c(n2)CCCC3)c1
[out] yes

[in] Hello, is Ki of the following compound strictly smaller than 1000 nM? NS(=O)(=O)c1cccc(Nc2ncc3c(n2)CCCC3)c1
[out] yes

---

- ASSAYED TARGET: Cyclin-dependent kinase 5/CDK5 activator 1 (Homo sapiens, UniProt Q00535+Q15078)
- ASSAY COMMENT: Inhibition of recombinant full length N-terminal GST tagged human CDK5/p25 expressed in baculovirus infected sf9 cells using histone H1 as substrate at 10 uM measured after 60 mins in presence of ATP by ADP-Glo kinase assay relative to control
Entries and their inhibition
Write the number in % without appending the unit.

Example compounds with recorded inhibition:
- CHEM SMILES: "O=[N+]([O-])c1cccc(Nc2ncc3c(n2)CCCC3)c1"
  MEASURE UNIT: "%"
  inhibition: 83
- CHEM SMILES: "CCOc1ccccc1Nc1ncc2c(n1)CCCC2"
  MEASURE UNIT: "%"
  inhibition: 4

In the following, a different compound is considered.
[in] Give the reported value of inhibition for this record: Cc1c(Nc2ncc3c(n2)CCCC3)cccc1NS(C)(=O)=O
[out] 63
